assay: Cmax in cynomolgus monkey at 2.5 mg/kg, po; format: ADME, organism-based, Macaca fascicularis; design: dose 2.5 mg/kg, route oral; details: in vivo
observable: Cmax (ng/mL)

I = C[C@]1(c2nc3c(C(N)=O)cccc3[nH]2)CCCN1
II = C[C@@]1(c2nc3c(C(N)=O)cccc3[nH]2)CCCN1
Query block: Which of the two items, I and II , has the greater recorded Cmax? Answer with the label corresponding to your selection.
Result block: I

====

assay: Volume of distribution at steady state in CD1 mouse at 10 mg/kg; type: ADME, organism-based; set-up: dose 10 mg/kg; conditions: in vivo, read-out: Vdss
observable: Vd (L/kg)

>>> reading("C[C@@]1(c2nc3c(C(N)=O)cccc3[nH]2)CCCN1")
10.3
>>> reading("C[C@]1(c2nc3c(C(N)=O)cccc3[nH]2)CCCN1")
9.4

====

experiment: Water solubility of compound at physiological pH; type: physicochemical
observable: solubility

Query block: Query: solubility; subject: C[C@]1(c2nc3c(C(N)=O)cccc3[nH]2)CCCN1
Result block: > 5000 µg/mL

====

assay: Volume of distribution at steady state in Sprague-Dawley rat at 5 mg/kg; type: ADME, organism-based; parameters: dose 5 mg/kg; settings: in vivo, read-out: Vdss
observable: Vd (L/kg)

P = C[C@@]1(c2nc3c(C(N)=O)cccc3[nH]2)CCCN1
Q = C[C@]1(c2nc3c(C(N)=O)cccc3[nH]2)CCCN1
Query block: Which of the two items, P and Q , has the greater recorded Vd? Answer with the label corresponding to your selection.
Result block: P

====

test: Half life in Sprague-Dawley rat at 5 mg/kg, iv; assay type: ADME, organism-based; parameters: dose 5 mg/kg, route intravenous; details: in vivo
observable: half-life (h)

a = C[C@@]1(c2nc3c(C(N)=O)cccc3[nH]2)CCCN1
b = C[C@]1(c2nc3c(C(N)=O)cccc3[nH]2)CCCN1
Query block: // returns a or b , whichever has the lower half-life Answer with the label corresponding to your selection.
Result block: b

====

assay: Protein binding in Sprague-Dawley rat plasma at 5 uM; assay type: ADME, cell-free; conditions: read-out: PPB (converted)
observable: fraction unbound at 5 µM
Lab note: write the figure by itself, no unit.

Query block: Query: fraction unbound at 5 µM; subject: C[C@]1(c2nc3c(C(N)=O)cccc3[nH]2)CCCN1
Result block: 0.59

====

assay: Clearance in CD1 mouse at 10 mg/kg; type: ADME, organism-based; set-up: dose 10 mg/kg; conditions: in vivo
observable: clearance (mL/min/kg)

A = C[C@@]1(c2nc3c(C(N)=O)cccc3[nH]2)CCCN1
B = C[C@]1(c2nc3c(C(N)=O)cccc3[nH]2)CCCN1
Query block: Which of the two items, A and B , has the greater recorded clearance? Answer with the label corresponding to your selection.
Result block: A

====

experiment: Protein binding in Beagle dog plasma at 5 uM; format: ADME, cell-free, Canis lupus familiaris; conditions: read-out: PPB (converted)
observable: fraction unbound at 5 µM
Lab note: write the figure by itself, no unit.

Query block: Query: fraction unbound at 5 µM; subject: C[C@]1(c2nc3c(C(N)=O)cccc3[nH]2)CCCN1
Result block: 0.59

====

biological target: Poly [ADP-ribose] polymerase 2 (Homo sapiens, UniProt Q9UGN5); assay: Inhibition of human recombinant PARP2
Sequence (Q9UGN5 whole entry): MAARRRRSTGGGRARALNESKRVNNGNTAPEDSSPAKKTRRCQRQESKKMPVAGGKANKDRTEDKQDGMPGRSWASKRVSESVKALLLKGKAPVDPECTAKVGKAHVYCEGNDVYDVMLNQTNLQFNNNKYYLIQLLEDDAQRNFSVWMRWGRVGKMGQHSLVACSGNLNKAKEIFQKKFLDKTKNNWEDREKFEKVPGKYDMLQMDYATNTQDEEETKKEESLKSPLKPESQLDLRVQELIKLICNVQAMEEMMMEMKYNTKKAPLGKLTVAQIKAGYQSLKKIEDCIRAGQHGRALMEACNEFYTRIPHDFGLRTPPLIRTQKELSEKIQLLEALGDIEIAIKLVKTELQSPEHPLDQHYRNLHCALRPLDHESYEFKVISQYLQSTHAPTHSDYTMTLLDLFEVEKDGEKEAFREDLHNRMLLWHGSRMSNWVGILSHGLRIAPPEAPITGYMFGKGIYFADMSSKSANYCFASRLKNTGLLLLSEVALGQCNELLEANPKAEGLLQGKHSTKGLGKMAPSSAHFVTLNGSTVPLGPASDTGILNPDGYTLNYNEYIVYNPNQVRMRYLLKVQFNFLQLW
pKi: −log10 of the molar value.
observable: pKi

>>> reading("CC1(c2nc3c(C(N)=O)cccc3[nH]2)CCNC1 (stereo not drawn)")
8.70

1 = CC1(c2nc3c(C(N)=O)cccc3[nH]2)CCNCC1
2 = C[C@]1(c2nc3c(C(N)=O)cc(F)cc3[nH]2)CCCN1
Query block: // returns 1 or 2 , whichever has the lower pKi Answer with the label corresponding to your selection.
Result block: 2
